RECORDED ENDPOINT: melting point

Documented melting point of CC1(C)OC(c2ccc(S(N)(=O)=O)c(Cl)c2)=C(c2ccccc2)C1=O [Example 367] : 193 to 194 °C

Reported melting point of CC1(C)OC(c2ccc(S(N)(=O)=O)c(F)c2)=C(c2ccc(F)c(F)c2)C1=O [Example 311] : 199 to 200 °C

Lab note: CCC1(CC)OC(c2ccc(S(C)(=O)=O)cc2)=C(c2ccc(C)cc2)C1=O [Example 245] gave melting point of 96 to 97 °C

Looking up CS(=O)(=O)c1ccc(C2=C(c3cc(F)cc(F)c3)C(=O)C3(CCCC3)O2)cc1 [Example 256] , I found its melting point recorded as 127 to 128 °C
